// reported protein stability index for each item listed
B1: ELF3 (parent)
chain: LSKEYWDCLEGKKSKHAPRGTHLW

Variants of: B1
Assay: protein stability index of a GFP-peptide fusion (GPS, HEK-293T) (PSI 1-6); higher = more stable;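 note: lentivirally expressed fusions sorted by FACS into six bins by GFP to DsRed ratio, PSI derived from sequencing read proportions per bin multiplied by bin number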
Conditions: c terminus: a fixed tail appended
Reply with the value as a number alone.

mutant.label	protein stability index
S14N	2.96

Entry P18R , protein stability index reported as 2.34

Entry E10V , protein stability index reported as 2.28

Entry S2P , protein stability index reported as 2.99

Entry K12V , protein stability index reported as 2.23

Entry L23F , protein stability index reported as 2.93

Entry Y5R , protein stability index reported as 3

Entry D7M , protein stability index reported as 2.6

Entry C8V , protein stability index reported as 3.89

Entry K12P , protein stability index reported as 2.96

Entry P18N , protein stability index reported as 3.36

Entry A17D , protein stability index reported as 2.69

Entry W6P , protein stability index reported as 3.82
